The values you see were collected from patent US20190092852A1.

# experimental.target: T1, cyno IL-33 N-His (cynomolgus monkey)
# T1 chain: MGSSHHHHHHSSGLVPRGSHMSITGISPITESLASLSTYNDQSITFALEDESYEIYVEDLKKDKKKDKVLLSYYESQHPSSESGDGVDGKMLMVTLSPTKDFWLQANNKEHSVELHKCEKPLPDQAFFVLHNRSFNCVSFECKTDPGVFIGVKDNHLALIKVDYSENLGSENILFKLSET
# test.details: SPR Biacore T200, 37 C
Listed next: entries and their corresponding Kd.

| binder | Kd [nM] |
| --- | --- |
| H4H9670P (antibody, V domains shown) VH: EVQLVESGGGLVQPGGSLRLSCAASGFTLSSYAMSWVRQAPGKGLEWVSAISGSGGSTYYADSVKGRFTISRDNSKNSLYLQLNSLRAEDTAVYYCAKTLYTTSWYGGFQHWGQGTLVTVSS VL: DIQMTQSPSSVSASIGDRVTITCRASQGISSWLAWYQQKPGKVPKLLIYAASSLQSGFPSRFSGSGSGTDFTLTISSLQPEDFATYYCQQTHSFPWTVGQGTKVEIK | 5.82 |
| H4H9664P (antibody, V domains shown) VH: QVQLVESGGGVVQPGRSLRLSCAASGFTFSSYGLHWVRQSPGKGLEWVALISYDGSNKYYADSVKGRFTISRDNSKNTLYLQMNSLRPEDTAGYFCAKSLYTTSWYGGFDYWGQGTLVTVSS VL: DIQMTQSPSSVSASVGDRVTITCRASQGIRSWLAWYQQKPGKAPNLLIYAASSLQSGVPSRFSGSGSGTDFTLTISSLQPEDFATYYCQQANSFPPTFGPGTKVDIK | 10.4 |
| H4H9665P (antibody, V domains shown) VH: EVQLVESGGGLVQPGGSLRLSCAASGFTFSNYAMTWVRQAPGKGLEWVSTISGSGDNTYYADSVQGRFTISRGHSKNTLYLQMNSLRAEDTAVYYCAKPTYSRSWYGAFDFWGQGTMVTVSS VL: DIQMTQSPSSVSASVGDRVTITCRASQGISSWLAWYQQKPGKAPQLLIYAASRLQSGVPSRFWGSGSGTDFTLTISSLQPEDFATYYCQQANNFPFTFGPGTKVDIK | 1.96 |
